Reported IC50 values for the following compounds.
Target: PI3 Kgamma (PI3 Kg) (Homo sapiens, UniProt P48736)
Construct: endogenous in cells; host or cells: cell lysate
Sequence (P48736 whole entry): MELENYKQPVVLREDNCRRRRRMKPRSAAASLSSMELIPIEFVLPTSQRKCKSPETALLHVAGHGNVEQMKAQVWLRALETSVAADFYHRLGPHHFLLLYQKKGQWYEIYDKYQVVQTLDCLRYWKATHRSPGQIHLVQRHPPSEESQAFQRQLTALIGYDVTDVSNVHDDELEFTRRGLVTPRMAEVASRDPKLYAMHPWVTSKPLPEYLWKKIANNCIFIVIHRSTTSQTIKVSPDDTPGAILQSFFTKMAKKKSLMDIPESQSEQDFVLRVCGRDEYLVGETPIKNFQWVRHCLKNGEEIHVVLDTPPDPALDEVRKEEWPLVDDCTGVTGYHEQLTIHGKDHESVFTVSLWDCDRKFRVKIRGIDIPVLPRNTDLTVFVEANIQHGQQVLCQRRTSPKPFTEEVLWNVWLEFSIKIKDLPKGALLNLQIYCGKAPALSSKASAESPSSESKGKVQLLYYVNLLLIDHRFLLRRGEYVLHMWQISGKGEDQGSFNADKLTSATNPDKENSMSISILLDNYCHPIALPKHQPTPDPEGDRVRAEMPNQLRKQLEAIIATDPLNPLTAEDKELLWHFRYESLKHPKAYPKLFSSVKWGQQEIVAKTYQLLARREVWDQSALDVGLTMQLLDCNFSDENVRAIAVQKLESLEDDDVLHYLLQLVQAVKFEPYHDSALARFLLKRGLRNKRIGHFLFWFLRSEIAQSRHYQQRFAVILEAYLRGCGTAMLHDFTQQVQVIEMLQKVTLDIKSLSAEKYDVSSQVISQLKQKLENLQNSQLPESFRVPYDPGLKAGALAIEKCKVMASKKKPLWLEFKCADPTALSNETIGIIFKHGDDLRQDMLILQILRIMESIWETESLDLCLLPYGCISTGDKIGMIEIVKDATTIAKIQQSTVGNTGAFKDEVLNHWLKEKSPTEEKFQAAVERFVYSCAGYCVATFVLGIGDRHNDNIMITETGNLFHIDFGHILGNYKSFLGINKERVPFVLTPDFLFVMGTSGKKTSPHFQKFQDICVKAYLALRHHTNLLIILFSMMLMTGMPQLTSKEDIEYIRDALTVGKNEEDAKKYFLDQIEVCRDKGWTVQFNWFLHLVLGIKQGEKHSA
Assay: kinobeads assay, PI3Kgamma
Format: binding
Details: kinobeads assay, Table 6; read-out: Inhibition values (IC50) PI3Kg
Protocol: The kinobeads assay was performed as a competitive binding assay in which test compounds were added directly into a cell lysate. […] Bound proteins were then eluted and the presence of kinases was detected and quantified using a multiplexed immunodetection format. Dose response curves for individual kinases were generated and IC50 values calculated. […]

compound="C[C@H]1COCCN1c1nc(-c2ccc(NC(=O)NC3CC3)cc2)nc2c1CN(C(=O)CCN1CCCC1=O)C2 [Example 132]" test_system="PI3 Kgamma (PI3 Kg) (Homo sapiens, UniProt P48736)" value_reported="> 10 µM"
compound="CCOC(=O)N1Cc2nc(-c3ccc(NC(=O)NC4CC4)c(F)c3)nc(N3CCOC[C@@H]3C)c2C1 [Example 105]" test_system="PI3 Kgamma (PI3 Kg) (Homo sapiens, UniProt P48736)" value_reported="> 10 µM"
compound="CCNC(=O)Nc1ccc(-c2nc3c(c(N4CCOCC4)n2)CCN(C(=O)OC)C3)cc1 [Example 95]" test_system="PI3 Kgamma (PI3 Kg) (Homo sapiens, UniProt P48736)" value_reported="> 10 µM"
compound="C[C@H]1COCCN1c1nc(-c2ccc(NC(=O)NC3CC3)cc2)nc2c1CN(C(=O)C1CCOCC1)C2 [Example 129]" test_system="PI3 Kgamma (PI3 Kg) (Homo sapiens, UniProt P48736)" value_reported="> 10 µM"
compound="CC(=O)NCCCC(=O)N1Cc2nc(-c3ccc(NC(=O)NC4CC4)cc3)nc(N3CCOC[C@@H]3C)c2C1 [Example 133]" test_system="PI3 Kgamma (PI3 Kg) (Homo sapiens, UniProt P48736)" value_reported="> 10 µM"
compound="CC(C)N1CCc2c(nc(-c3ccc(NC(=O)NC4CC4)cc3)nc2N2CCOC[C@@H]2C)C1 [Example 43]" test_system="PI3 Kgamma (PI3 Kg) (Homo sapiens, UniProt P48736)" value_reported="1 to 10 µM"

Briefly, IC50 measured for C[C@H]1COCCN1c1nc(-c2ccc(NC(=O)NC3CC3)cc2)nc2c1CN(CC1CCNCC1)C2 [Example 130] : > 10 µM

====

Reported IC50 values for the following compounds.
molecular target: PI3K delta (PI3 Kd) (Homo sapiens, UniProt O00329); construct: endogenous in cells; host or cells: Jurkat, clone E6-1 (ATCC TIB-152) cell lysate; test: kinobeads assay, PI3K delta; assay type: binding; settings: kinobeads assay, Table 6; read-out: Inhibition values (IC50) PI3Kd
Sequence (O00329 whole entry): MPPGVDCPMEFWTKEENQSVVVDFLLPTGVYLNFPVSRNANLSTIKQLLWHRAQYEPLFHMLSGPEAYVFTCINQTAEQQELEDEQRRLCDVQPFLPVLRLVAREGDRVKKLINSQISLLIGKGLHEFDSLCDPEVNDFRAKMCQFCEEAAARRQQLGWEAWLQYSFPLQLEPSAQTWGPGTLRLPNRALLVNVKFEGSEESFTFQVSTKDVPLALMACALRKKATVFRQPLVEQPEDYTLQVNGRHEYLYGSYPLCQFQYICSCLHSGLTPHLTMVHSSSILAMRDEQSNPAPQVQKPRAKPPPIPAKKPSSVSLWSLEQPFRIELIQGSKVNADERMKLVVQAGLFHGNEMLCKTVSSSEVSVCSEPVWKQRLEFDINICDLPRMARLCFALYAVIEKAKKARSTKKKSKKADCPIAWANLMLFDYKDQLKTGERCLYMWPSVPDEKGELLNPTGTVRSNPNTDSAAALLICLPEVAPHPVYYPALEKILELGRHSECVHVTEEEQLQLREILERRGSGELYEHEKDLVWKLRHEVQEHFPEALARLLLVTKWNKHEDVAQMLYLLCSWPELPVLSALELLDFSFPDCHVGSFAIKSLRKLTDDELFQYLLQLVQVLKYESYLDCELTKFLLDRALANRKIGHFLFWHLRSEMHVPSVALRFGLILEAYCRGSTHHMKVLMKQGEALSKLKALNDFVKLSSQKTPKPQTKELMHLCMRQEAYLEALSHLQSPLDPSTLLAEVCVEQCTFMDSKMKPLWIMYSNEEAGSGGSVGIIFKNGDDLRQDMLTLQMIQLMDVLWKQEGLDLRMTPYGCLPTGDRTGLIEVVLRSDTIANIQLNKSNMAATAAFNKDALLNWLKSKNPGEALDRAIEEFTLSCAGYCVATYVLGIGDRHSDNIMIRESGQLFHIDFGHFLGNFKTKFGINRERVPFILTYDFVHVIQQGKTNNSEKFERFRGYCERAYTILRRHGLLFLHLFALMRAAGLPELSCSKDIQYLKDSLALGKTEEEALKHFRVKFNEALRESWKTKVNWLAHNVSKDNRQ
Sequence (P27986 whole entry partner): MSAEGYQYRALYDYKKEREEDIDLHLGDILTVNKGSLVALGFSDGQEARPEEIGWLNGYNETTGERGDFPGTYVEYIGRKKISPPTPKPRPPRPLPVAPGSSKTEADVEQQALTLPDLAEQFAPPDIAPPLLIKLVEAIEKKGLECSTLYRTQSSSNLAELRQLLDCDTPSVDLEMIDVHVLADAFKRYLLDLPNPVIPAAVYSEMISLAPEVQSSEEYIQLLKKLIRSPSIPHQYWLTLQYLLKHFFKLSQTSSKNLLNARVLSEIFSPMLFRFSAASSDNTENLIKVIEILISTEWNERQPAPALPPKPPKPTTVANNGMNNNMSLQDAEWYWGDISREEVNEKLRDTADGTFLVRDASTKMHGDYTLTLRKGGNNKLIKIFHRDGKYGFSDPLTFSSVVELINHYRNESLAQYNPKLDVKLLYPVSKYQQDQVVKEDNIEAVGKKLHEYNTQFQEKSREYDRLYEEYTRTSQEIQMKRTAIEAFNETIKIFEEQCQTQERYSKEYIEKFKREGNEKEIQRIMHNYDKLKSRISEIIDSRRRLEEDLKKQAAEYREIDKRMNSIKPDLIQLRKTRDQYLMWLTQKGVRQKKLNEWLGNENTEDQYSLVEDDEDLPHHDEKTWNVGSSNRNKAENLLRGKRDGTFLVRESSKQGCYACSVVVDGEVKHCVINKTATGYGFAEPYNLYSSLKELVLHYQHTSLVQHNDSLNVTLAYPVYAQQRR

Below: 6 compounds and their reported IC50.
smiles_text=CC(=O)N1Cc2nc(-c3ccc(NC(=O)NC4CC4)cc3)nc(N3CCOC[C@@H]3C)c2C1 test_system="PI3K delta (PI3 Kd) (Homo sapiens, UniProt O00329)" value_reported="> 10 µM"
smiles_text=CCNC(=O)Nc1ccc(-c2nc3c(c(N4CCOCC4)n2)CNC3)cc1 test_system="PI3K delta (PI3 Kd) (Homo sapiens, UniProt O00329)" value_reported="1 to 10 µM"
smiles_text=CC(=O)NCCCC(=O)N1Cc2nc(-c3ccc(NC(=O)NC4CC4)cc3)nc(N3CCOC[C@@H]3C)c2C1 test_system="PI3K delta (PI3 Kd) (Homo sapiens, UniProt O00329)" value_reported="1 to 10 µM"
smiles_text=CCNC(=O)Nc1ccc(-c2nc3c(c(N4CCOC[C@@H]4C)n2)CCN(C)C3)cc1 test_system="PI3K delta (PI3 Kd) (Homo sapiens, UniProt O00329)" value_reported="> 10 µM"
smiles_text=CCNC(=O)N1CCc2c(nc(-c3ccc(NC(=O)NC4CC4)cc3)nc2N2CCOC[C@@H]2C)C1 test_system="PI3K delta (PI3 Kd) (Homo sapiens, UniProt O00329)" value_reported="> 10 µM"
smiles_text=CCNC(=O)Nc1ccc(-c2nc3c(c(N4CCOC[C@@H]4C)n2)CN(C)C3)cc1 test_system="PI3K delta (PI3 Kd) (Homo sapiens, UniProt O00329)" value_reported="> 10 µM"

Briefly, IC50 measured for `CCNC(=O)Nc1ccc(-c2nc3c(c(N4CCOC[C@@H]4C)n2)CN(C(=O)OCC)C3)cc1` : > 10 µM
